- Test system: IL-1alpha
- Protocol Details: LPS-stimulated interleukin release from human mononuclear cells, ELISA (IL-1alpha)
- Format: cell-based
- Condition Info: 10 µmol/l, 20-22 h, read-out: % Hemmung der Interleukin-Freisetzung
Reported inhibition at 10 µM values are given for each entry in this list.
The response must be a number in % with no trailing unit.

Observe how each entry below is paired with its result.
[
  {
    "Compound": "CCOP(=O)(OCC)C(c1cc(C(C)(C)C)c(O)c(C(C)(C)C)c1)N1CCCCC1 (centres unmarked)",
    "Unit Name": "%",
    "Value Observed": 80
  },
  {
    "Compound": "CCOP(=O)(OCC)C(c1cc(C(C)(C)C)c(O)c(C(C)(C)C)c1)N1CCN(c2ccccc2)CC1 (centres unmarked)",
    "Unit Name": "%",
    "Value Observed": 60
  },
  {
    "Compound": "CCOP(=O)(OCC)C(c1cc(C(C)(C)C)c(O)c(C(C)(C)C)c1)N1CCOCC1 (centres unmarked)",
    "Unit Name": "%",
    "Value Observed": 75
  },
  {
    "Compound": "COP(=O)(OC)C(NC1CCCCC1)c1cc(C(C)(C)C)c(O)c(C(C)(C)C)c1 (centres unmarked)",
    "Unit Name": "%",
    "Value Observed": 21
  }
]

Now for a further compound.
inhibition at 10 µM of CCCCOP(=O)(OCCCC)C(Nc1ccc(Cl)cc1)c1cc(C(C)(C)C)c(O)c(C(C)(C)C)c1 (centres unmarked) on IL-1alpha?
22
